Just for reference, paper PMC9516332 is where these values come from.

target: panel of 255 wild-type kinases (Homo sapiens, UniProt P24723); experiment: Kinase panel profiling at 1 µmol/L (MSA or IMAP), percentage inhibition; assay type: biochemical; conditions: kinase PKCη; 1 µmol/L single concentration; read-out: %-inhibition at 1 µmol/L, PKCη
Sequence (P24723 whole entry): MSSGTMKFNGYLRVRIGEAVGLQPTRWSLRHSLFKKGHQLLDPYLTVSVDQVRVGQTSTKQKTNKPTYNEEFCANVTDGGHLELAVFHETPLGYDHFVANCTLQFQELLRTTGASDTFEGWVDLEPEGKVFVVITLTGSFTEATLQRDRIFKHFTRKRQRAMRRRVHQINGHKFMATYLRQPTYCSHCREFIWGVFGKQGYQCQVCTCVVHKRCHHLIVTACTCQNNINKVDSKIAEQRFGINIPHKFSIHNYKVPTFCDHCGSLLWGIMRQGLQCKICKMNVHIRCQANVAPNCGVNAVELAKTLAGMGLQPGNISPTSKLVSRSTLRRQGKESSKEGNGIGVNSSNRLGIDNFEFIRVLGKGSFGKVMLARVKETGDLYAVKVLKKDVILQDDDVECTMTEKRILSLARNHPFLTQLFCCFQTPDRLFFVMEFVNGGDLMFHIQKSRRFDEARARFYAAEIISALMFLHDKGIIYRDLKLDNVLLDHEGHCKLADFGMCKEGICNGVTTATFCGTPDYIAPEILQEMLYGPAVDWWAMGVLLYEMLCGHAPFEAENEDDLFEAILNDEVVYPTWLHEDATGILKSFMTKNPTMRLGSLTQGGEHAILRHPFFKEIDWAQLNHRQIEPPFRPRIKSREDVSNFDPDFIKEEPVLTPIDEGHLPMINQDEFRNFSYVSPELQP
Exercise: state measured inhibition at 1 µM for each of the molecules provided.
Numbers only, in %.

CCc1nc(C(N)=O)c(Nc2ccc(N3CCC(N4CCN(C)CC4)CC3)c(OC)c2)nc1NC1CCOCC1 13

Fill in inhibition at 1 µM for each of the 5 molecules listed.
1. COc1ccc(CN2C3CC2CN(c2ccc(-c4cc(OCC(C)(C)O)cn5ncc(C#N)c45)cn2)C3)cn1
2. O=C(Nc1cnn2ccc(N3CCC[C@@H]3c3cc(F)ccc3F)nc12)N1CC[C@H](O)C1
3. COc1cc2ncnc(Nc3ccc(F)c(Cl)c3)c2cc1NC(=O)/C=C/CN1CCCCC1
4. Cn1cnc2c(F)c(Nc3ccc(Br)cc3Cl)c(C(=O)NOCCO)cc21
5. Cc1nc(NC(=O)N2CCC[C@H]2C(N)=O)sc1-c1ccnc(C(C)(C)C(F)(F)F)c1

4.42
1.58
11
-3.21
1.42

Fill in inhibition at 1 µM for each of the 3 molecules listed.
1. Cn1cc(-c2cc3c(N4CCN(c5ncc([C@@](C)(N)c6ccc(F)cc6)cn5)CC4)ncnn3c2)cn1
2. CCN1CCN(c2ccc(Nc3cc(N(C)C(=O)Nc4c(Cl)c(OC)cc(OC)c4Cl)ncn3)cc2)CC1
3. COC(=O)N[C@@H](C)CNc1nccc(-c2cn(C(C)C)nc2-c2cc(Cl)cc(NS(C)(=O)=O)c2F)n1

1. -5
2. 2
3. 13

Fill in inhibition at 1 µM for each of the 2 molecules listed.
1. CO[C@]1(C(=O)N[C@@H](C)c2ccc(-n3cc(F)cn3)nc2)CC[C@H](c2nc(C)cc(Nc3cc(C)[nH]n3)n2)CC1
2. CN1CCN(c2ccc(C(=O)Nc3n[nH]c4ccc(Cc5cc(F)cc(F)c5)cc34)c(NC3CCOCC3)c2)CC1

1: -3.21; 2: 19

###

Molecular target: panel of 255 wild-type kinases (Homo sapiens, UniProt Q02156)
Sequence (Q02156 1-737): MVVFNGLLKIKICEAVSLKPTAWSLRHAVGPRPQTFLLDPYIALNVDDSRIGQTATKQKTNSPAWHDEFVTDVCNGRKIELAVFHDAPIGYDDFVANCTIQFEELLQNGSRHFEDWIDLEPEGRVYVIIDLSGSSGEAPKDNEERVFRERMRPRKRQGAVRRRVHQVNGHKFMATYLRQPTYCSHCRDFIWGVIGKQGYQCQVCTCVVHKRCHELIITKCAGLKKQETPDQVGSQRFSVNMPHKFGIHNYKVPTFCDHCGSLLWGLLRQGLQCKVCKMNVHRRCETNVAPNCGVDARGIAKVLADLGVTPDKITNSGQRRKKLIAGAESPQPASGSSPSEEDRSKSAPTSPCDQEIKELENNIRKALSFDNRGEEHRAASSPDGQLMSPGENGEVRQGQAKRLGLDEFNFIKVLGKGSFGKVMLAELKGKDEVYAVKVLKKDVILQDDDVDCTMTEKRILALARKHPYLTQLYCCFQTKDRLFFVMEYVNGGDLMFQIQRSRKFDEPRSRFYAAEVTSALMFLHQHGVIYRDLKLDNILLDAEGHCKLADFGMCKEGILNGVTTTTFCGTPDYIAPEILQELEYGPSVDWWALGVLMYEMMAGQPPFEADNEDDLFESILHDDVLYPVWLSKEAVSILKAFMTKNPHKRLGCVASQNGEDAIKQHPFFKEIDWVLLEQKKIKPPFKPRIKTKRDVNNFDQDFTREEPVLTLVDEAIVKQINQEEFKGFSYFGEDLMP
Assay: Kinase panel profiling at 1 µmol/L (MSA or IMAP), percentage inhibition
Assay type: biochemical
Settings: kinase PKCε; 1 µmol/L single concentration; read-out: %-inhibition at 1 µmol/L, PKCε
QUANTITY_NAME: inhibition at 1 µM (%)
Numbers only, in %.

Fill in inhibition at 1 µM for each of the 4 molecules listed.
1. COc1cc2ncnc(Nc3ccc(F)c(Cl)c3)c2cc1NC(=O)/C=C/CN1CCCCC1
2. CCn1c(=O)c(-c2cc(NC(=O)Nc3ccccc3)c(F)cc2Br)cc2cnc(NC)cc21
3. COc1ccc(CN2C3CC2CN(c2ccc(-c4cc(OCC(C)(C)O)cn5ncc(C#N)c45)cn2)C3)cn1
4. C[C@H](Nc1ncnc2nc[nH]c12)c1cc2cccc(Cl)c2c(=O)n1-c1ccccc1

1: 8; 2: 6; 3: 7; 4: 13
